Recorded values, source PubChem BioAssay.

TESTED TARGET: L-lactate dehydrogenase (Plasmodium falciparum (isolate CDC / Honduras)) (UniProt Q27743)
Sequence (Q27743 whole entry, looked up): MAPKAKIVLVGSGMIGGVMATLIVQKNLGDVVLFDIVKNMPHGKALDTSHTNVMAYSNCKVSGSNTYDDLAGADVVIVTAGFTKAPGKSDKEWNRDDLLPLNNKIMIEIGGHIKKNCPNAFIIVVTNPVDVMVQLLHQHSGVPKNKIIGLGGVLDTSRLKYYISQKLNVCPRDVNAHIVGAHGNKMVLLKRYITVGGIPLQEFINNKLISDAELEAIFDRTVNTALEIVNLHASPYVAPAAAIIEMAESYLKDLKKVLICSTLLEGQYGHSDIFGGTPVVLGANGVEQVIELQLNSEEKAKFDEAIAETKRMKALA
EXPERIMENTAL DETAILS: PfLDH activity inhibition – cell lysate, 3D7 strain, counter-screen for P. falciparum growth inhibition project (AID 2304);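 also: 0% = vehicle and 100% = reference inhibitor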
EXPERIMENTAL SETUP: P. falciparum 3D7 crude extract, LDH APAD/NBT absorbance; at 2 µM; active compounds read high
Catalogue of inhibition values

{"MOLECULE": "CCOC(=O)c1c(C)n(-c2ccccc2)c2ccc(O)cc12", "inhibition / %": -4}
{"MOLECULE": "CN(C)C(CNC(=O)c1cc(-c2ccncc2)c(-c2ccc(NC(=O)Nc3cccc(F)c3)cc2)o1)c1ccccc1 (stereo not given)", "inhibition / %": 3}
{"MOLECULE": "CCCC(C)c1cnc2nc(N)nc(N)c2c1C (stereo not given)", "inhibition / %": 3}
{"MOLECULE": "O=C1OC(c2ccccc2)(c2ccccc2)CN1CC1CCN(Cc2ccc(O)c(Cl)c2)CC1", "inhibition / %": -1}
{"MOLECULE": "Cc1ccc(N(CCC(=N)N)Cc2ccccc2)cc1", "inhibition / %": -3}
{"MOLECULE": "Cc1ccc(F)c(OCC2CCN(c3ncc(C(=O)NC4CC4)cc3Cl)CC2)c1", "inhibition / %": -3}
{"MOLECULE": "COc1cc(NC(=O)/C=C/c2ccccc2Cl)cc(OCCN2CCC(O)(c3ccccc3)CC2)c1", "inhibition / %": -1}
{"MOLECULE": "COc1ccc(CNC(=O)NC2CCN(c3ccnc(Nc4cc(OC)c(OC)c(OC)c4)n3)C2)cc1 (stereo not given)", "inhibition / %": 3}
{"MOLECULE": "CCCC(C)NC(=O)c1cnn(-c2ccc(C(C)(C)C)cc2)c1OCc1ccc(Br)cc1 (stereo not given)", "inhibition / %": 0}
{"MOLECULE": "Cc1sc(CNCCCNc2cc(=O)c3ccccc3[nH]2)c(I)c1C", "inhibition / %": -4}

###

TESTED TARGET: L-lactate dehydrogenase (Plasmodium falciparum (isolate CDC / Honduras))
EXPERIMENTAL DETAILS: PfLDH activity inhibition – cell lysate, 3D7 strain, counter-screen for P. falciparum growth inhibition project (AID 2304);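 also: 0% = vehicle and 100% = reference inhibitor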
EXPERIMENTAL SETUP: P. falciparum 3D7 crude extract, LDH APAD/NBT absorbance; at 2 µM; active compounds read high

{"COMPOUND": "CO/C(=C\\C=C\\c1cc2cc(Cl)c(Cl)cc2[nH]1)C(=O)NCCCN1CCN(c2cccc(O)c2)CC1", "TESTED TARGET": "L-lactate dehydrogenase (Plasmodium falciparum (isolate CDC / Honduras))", "UNIT SYMBOL": "%", "inhibition": -2}
{"COMPOUND": "COc1cc(NC(=O)N2CCc3ccc(OCCN4CCCCC4)cc32)cc(C(F)(F)F)c1", "TESTED TARGET": "L-lactate dehydrogenase (Plasmodium falciparum (isolate CDC / Honduras))", "UNIT SYMBOL": "%", "inhibition": 6}
{"COMPOUND": "Oc1cccc(-c2nc(-c3ccccc3)c(-c3ccc(Oc4ccc(-c5[nH]c(-c6cccc(O)c6)nc5-c5ccccc5)cc4)cc3)[nH]2)c1", "TESTED TARGET": "L-lactate dehydrogenase (Plasmodium falciparum (isolate CDC / Honduras))", "UNIT SYMBOL": "%", "inhibition": 0}
{"COMPOUND": "Cc1ccc(CCOCCCCCNCC(O)c2cc(Cl)c(N)c(Cl)c2)cc1 (centres undefined)", "TESTED TARGET": "L-lactate dehydrogenase (Plasmodium falciparum (isolate CDC / Honduras))", "UNIT SYMBOL": "%", "inhibition": -1}
{"COMPOUND": "COc1ccccc1CN1CCC(NC(=O)c2ccc(-c3cccc(Cl)c3)s2)CC1", "TESTED TARGET": "L-lactate dehydrogenase (Plasmodium falciparum (isolate CDC / Honduras))", "UNIT SYMBOL": "%", "inhibition": -1}
{"COMPOUND": "Nc1nc(N)c2c(ccc3c2cnn3S(=O)(=O)N2CCCC2)n1", "TESTED TARGET": "L-lactate dehydrogenase (Plasmodium falciparum (isolate CDC / Honduras))", "UNIT SYMBOL": "%", "inhibition": 2}
{"COMPOUND": "N#Cc1ccc(-c2ccc(OCC(O)CN3CCCN(Cc4cccc(O)c4Cl)CC3)cc2)cc1 (centres undefined)", "TESTED TARGET": "L-lactate dehydrogenase (Plasmodium falciparum (isolate CDC / Honduras))", "UNIT SYMBOL": "%", "inhibition": -6}
{"COMPOUND": "Cc1cc(NC(=O)NCCN2CCC(NS(=O)(=O)c3cccc(Br)c3)C2)c2ccccc2n1 (centres undefined)", "TESTED TARGET": "L-lactate dehydrogenase (Plasmodium falciparum (isolate CDC / Honduras))", "UNIT SYMBOL": "%", "inhibition": -2}
{"COMPOUND": "COc1ccc2nccc(N(C)CC3(O)CCN(CC(O)c4ccc5c(c4)NC(=O)CS5)CC3)c2n1 (centres undefined)", "TESTED TARGET": "L-lactate dehydrogenase (Plasmodium falciparum (isolate CDC / Honduras))", "UNIT SYMBOL": "%", "inhibition": -5}
{"COMPOUND": "N#Cc1ccc2c(c1)CN(CCC1CCC(NC(=O)c3cc4cnccc4[nH]3)CC1)CC2 (centres undefined)", "TESTED TARGET": "L-lactate dehydrogenase (Plasmodium falciparum (isolate CDC / Honduras))", "UNIT SYMBOL": "%", "inhibition": -2}
{"COMPOUND": "COc1ccc(-c2cccc(NC(=O)c3ccc(Cl)cc3)c2)cc1CN1CCNCC1", "TESTED TARGET": "L-lactate dehydrogenase (Plasmodium falciparum (isolate CDC / Honduras))", "UNIT SYMBOL": "%", "inhibition": -3}
{"COMPOUND": "COc1ccc(-c2nnc(Sc3ccc(C#N)c([N+](=O)[O-])c3)n2CCC(C)C)cc1", "TESTED TARGET": "L-lactate dehydrogenase (Plasmodium falciparum (isolate CDC / Honduras))", "UNIT SYMBOL": "%", "inhibition": 5}
{"COMPOUND": "Cc1cccc2[nH]c(-c3ccc(-c4cccc(CNCCc5ccncc5)c4)cc3)nc12", "TESTED TARGET": "L-lactate dehydrogenase (Plasmodium falciparum (isolate CDC / Honduras))", "UNIT SYMBOL": "%", "inhibition": 2}
{"COMPOUND": "Cc1nn(C)c(C)c1CN(Cc1nc(-c2cccc(Oc3ccccc3)c2)oc1C)C1CC1", "TESTED TARGET": "L-lactate dehydrogenase (Plasmodium falciparum (isolate CDC / Honduras))", "UNIT SYMBOL": "%", "inhibition": 0}
{"COMPOUND": "CCOC(=O)c1cc(C(=O)NCCCCN2CCC(c3cn(C)c4ccccc34)CC2)ccc1-c1ccc(C(F)(F)F)cc1", "TESTED TARGET": "L-lactate dehydrogenase (Plasmodium falciparum (isolate CDC / Honduras))", "UNIT SYMBOL": "%", "inhibition": -3}
{"COMPOUND": "CCCCOC(=O)C1=C(C)NC2=C(C(=O)CCC2)C1c1ccc(OC)c(Br)c1 (centres undefined)", "TESTED TARGET": "L-lactate dehydrogenase (Plasmodium falciparum (isolate CDC / Honduras))", "UNIT SYMBOL": "%", "inhibition": -4}
{"COMPOUND": "COc1cc(F)c2ncc(Cl)c(C(O)CN3CCC(NC(=O)c4ccc5c(c4)NC(=O)CS5)CC3)c2c1 (centres undefined)", "TESTED TARGET": "L-lactate dehydrogenase (Plasmodium falciparum (isolate CDC / Honduras))", "UNIT SYMBOL": "%", "inhibition": 1}
{"COMPOUND": "COc1ccc2nc(-c3ccccc3)cc(NN=Cc3ccncc3)c2c1", "TESTED TARGET": "L-lactate dehydrogenase (Plasmodium falciparum (isolate CDC / Honduras))", "UNIT SYMBOL": "%", "inhibition": -2}
{"COMPOUND": "COc1ccc(OCC(O)CN(Cc2ccccc2OC)C(=O)Nc2ccc(Br)cc2)cc1 (centres undefined)", "TESTED TARGET": "L-lactate dehydrogenase (Plasmodium falciparum (isolate CDC / Honduras))", "UNIT SYMBOL": "%", "inhibition": 0}

###

Catalogue of inhibition values
EXPERIMENTAL DETAILS: human hepatoma cell viability loss – ATP luminescence, cytotoxicity control for P. falciparum antimalarial project, primary screen (AID 2303);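 also: 0% = DMSO wells and 100% = digitonin-killed cells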
EXPERIMENTAL SETUP: HepG2 viability, 24-48 h, at 10 µM, active compounds read high

{"COMPOUND": "COC(=O)C(=C(C)C)N1C(=O)[C@@H](NC(=O)OCc2ccccc2)[C@H]1SS[C@@H]1[C@H](NC(=O)OCc2ccccc2)C(=O)N1C(C(=O)OC)=C(C)C", "UNIT SYMBOL": "%", "inhibition": 18}
{"COMPOUND": "O=C1CCCN1CCCNCc1cccc(-c2cccc(-c3nc4ccc(C(F)(F)F)cc4[nH]3)c2)c1", "UNIT SYMBOL": "%", "inhibition": 28}
{"COMPOUND": "CC1CCc2c(C(=O)Nc3c(F)cc(F)cc3Br)csc2C1 (centres undefined)", "UNIT SYMBOL": "%", "inhibition": -1}
{"COMPOUND": "Nc1c2c(nc3ccc(NC(=O)CCCCCCc4ccccc4)cc13)CCCC2", "UNIT SYMBOL": "%", "inhibition": 100}
{"COMPOUND": "Cc1cc(C(=O)CN2C(=O)NC(C)(c3ccc4ccccc4c3)C2=O)c(C)n1Cc1ccco1 (centres undefined)", "UNIT SYMBOL": "%", "inhibition": 12}
{"COMPOUND": "CCSc1ccccc1COc1c(C)nc(N)nc1N", "UNIT SYMBOL": "%", "inhibition": 54}
{"COMPOUND": "O=C(C=Cc1ccc(F)cc1)N1CCN(S(=O)(=O)c2ccc(Cl)cc2)CC1", "UNIT SYMBOL": "%", "inhibition": 10}
{"COMPOUND": "Cc1ccccc1C1CCN(C2CCC(NC(=O)c3cc(-c4ccc(Cl)cc4)cs3)CC2)CC1 (centres undefined)", "UNIT SYMBOL": "%", "inhibition": 99}
{"COMPOUND": "Cc1cc(N)c2cc(NC(=O)c3cccc4ccccc34)ccc2n1", "UNIT SYMBOL": "%", "inhibition": 18}
